# run_description: Thermogravimetric analysis (TGA) of mass loss on heating
# Assay type: physicochemical
# recorded_conditions: TGA in air, rep 2; 30° C. to 600° C. at 5° C./min
measured_endpoint: Tpeak of mass loss (° C.) Air (rep 2) (°C)
Answers are plain numbers, in °C.

Below are worked cases with known answers.
| compound | assay_value |
| --- | --- |
| CCNC(=O)[C@H]1C[C@@H](C)CC[C@@H]1C(C)C (stereo in doubt) | 132 |
| CC(C)[C@@H]1CC[C@@H](C)C[C@H]1OC(=O)CCC(=O)O [Monomenthyl succinate, (−)-menthyl succinate] | 148 |
| CNC(=O)C(C)(C(C)C)C(C)C [WS-23, N,2,3-trimethyl-2-propan-2-ylbutanamide] | 88 |
| CCOC(=O)CNC(=O)[C@@H]1C[C@H](C)CC[C@H]1C(C)C | 151 |
| CC(C)[C@@H]1CC[C@@H](C)CC12OCC(CO)O2 (single isomer, unassigned; (-)) [Frescolat ® MGA, (−)-menthone 1,2-glycerol ketal] | 85 |

Provide Tpeak of mass loss (° C.) Air (rep 2) values for the following items, in order.
1. CC(C)[C@@H]1CC[C@@H](C)C[C@H]1OCC(O)CO (stereo partly drawn) [Coolact ® 10, 3-((−)-menthoxy)propane-1,2-diol]
2. COc1ccc(NC(=O)[C@@H]2C[C@H](C)CC[C@H]2C(C)C)cc1

**Result**
[112, 203]

Working through the 3 compounds below one at a time, give Tpeak of mass loss (° C.) Air (rep 2) for each.
1. CC(O)C(=O)O[C@@H]1C[C@H](C)CC[C@H]1C(C)C (stereo partly drawn) [Frescolat ® ML, (−)-menthyl lactate]
2. CC(C)[C@@H]1CC[C@@H](C)C[C@H]1C(=O)NCCc1ccccn1
3. CC1CCC(C(C)C)C(O)C1 (stereo not shown) [Menthol, menthol, reference compound]

**Result**
1: 88; 2: 164; 3: 55

###

# run_description: Thermogravimetric analysis (TGA) of mass loss on heating
# Type: physicochemical
# recorded_conditions: TGA in nitrogen, rep 1; 30° C. to 600° C. at 5° C./min
Binarize Tpeak of mass loss (° C.) Nitrogen (rep 1) at 100 °C; below is YES, at or above is NO.

Take a look at these entries with their results.
| molecule | label_class |
| --- | --- |
| CCNC(=O)[C@H]1C[C@@H](C)CC[C@@H]1C(C)C (stereo in doubt) | NO |
| CC(C)[C@@H]1CC[C@@H](C)C[C@H]1OCC(O)CO (stereo partly drawn) [Coolact ® 10, 3-((−)-menthoxy)propane-1,2-diol] | NO |
| CNC(=O)C(C)(C(C)C)C(C)C [WS-23, N,2,3-trimethyl-2-propan-2-ylbutanamide] | YES |

**Query** Dear colleague, could you confirm whether Tpeak of mass loss (° C.) Nitrogen (rep 1) of CC(C)[C@@H]1CC[C@@H](C)C[C@H]1OC(=O)CCC(=O)O [Monomenthyl succinate, (−)-menthyl succinate] falls below 100 °C? Thanks.
**Result** NO

**Query** Now this one: `CC(C)[C@@H]1CC[C@@H](C)C[C@H]1C(=O)NCCc1ccccn1`
**Result** NO

**Query** Next molecule up: `COc1ccc(NC(=O)[C@@H]2C[C@H](C)CC[C@H]2C(C)C)cc1`
**Result** NO

**Query** And the next one, CC(O)C(=O)O[C@@H]1C[C@H](C)CC[C@H]1C(C)C (stereo partly drawn) [Frescolat ® ML, (−)-menthyl lactate] ?
**Result** YES

**Query** What about this molecule? `CCOC(=O)CNC(=O)[C@@H]1C[C@H](C)CC[C@H]1C(C)C`
**Result** NO

**Query** One more molecule: CC1CCC(C(C)C)C(O)C1 (stereo not shown) [Menthol, menthol, reference compound]
**Result** YES

###

Please go through the items and note down their Tpeak of mass loss (° C.) Nitrogen (rep 2).
# run_description: Thermogravimetric analysis (TGA) of mass loss on heating
# Assay type: physicochemical
# recorded_conditions: TGA in nitrogen, rep 2; 30° C. to 600° C. at 5° C./min
Answers are plain numbers, in °C.

Sample answers from the record:
| compound | assay_value |
| --- | --- |
| COc1ccc(NC(=O)[C@@H]2C[C@H](C)CC[C@H]2C(C)C)cc1 | 197 |
| CC(C)[C@@H]1CC[C@@H](C)C[C@H]1OCC(O)CO (stereo partly drawn) [Coolact ® 10, 3-((−)-menthoxy)propane-1,2-diol] | 119 |
| CCNC(=O)[C@H]1C[C@@H](C)CC[C@@H]1C(C)C (stereo in doubt) | 128 |

Return reported Tpeak of mass loss (° C.) Nitrogen (rep 2) values for all items listed beneath this line.
1. CC(O)C(=O)O[C@@H]1C[C@H](C)CC[C@H]1C(C)C (stereo partly drawn) [Frescolat ® ML, (−)-menthyl lactate]
2. CNC(=O)C(C)(C(C)C)C(C)C [WS-23, N,2,3-trimethyl-2-propan-2-ylbutanamide]
3. CC(C)[C@@H]1CC[C@@H](C)CC12OCC(CO)O2 (single isomer, unassigned; (-)) [Frescolat ® MGA, (−)-menthone 1,2-glycerol ketal]
4. CC1CCC(C(C)C)C(O)C1 (stereo not shown) [Menthol, menthol, reference compound]

**Result**
1. 91
2. 86
3. 94
4. 55

###

# run_description: Thermogravimetric analysis (TGA) of mass loss on heating
# Format: physicochemical
# recorded_conditions: TGA in air, rep 1; 30° C. to 600° C. at 5° C./min
measured_endpoint: Tpeak of mass loss (° C.) Air (rep 1) (°C)
One number for each entry, in °C.

Past entries and their recorded results:
| compound | Tpeak of mass loss (° C.) Air (rep 1) (°C) |
| --- | --- |
| CC(C)[C@@H]1CC[C@@H](C)C[C@H]1OC(=O)CCC(=O)O [Monomenthyl succinate, (−)-menthyl succinate] | 144 |
| CCNC(=O)[C@H]1C[C@@H](C)CC[C@@H]1C(C)C (stereo in doubt) | 127 |
| COc1ccc(NC(=O)[C@@H]2C[C@H](C)CC[C@H]2C(C)C)cc1 | 202 |
| CC(O)C(=O)O[C@@H]1C[C@H](C)CC[C@H]1C(C)C (stereo partly drawn) [Frescolat ® ML, (−)-menthyl lactate] | 86 |
| CC(C)[C@@H]1CC[C@@H](C)C[C@H]1OCC(O)CO (stereo partly drawn) [Coolact ® 10, 3-((−)-menthoxy)propane-1,2-diol] | 119 |

Please state, for each entry, its recorded Tpeak of mass loss (° C.) Air (rep 1).
1. CCOC(=O)CNC(=O)[C@@H]1C[C@H](C)CC[C@H]1C(C)C
2. CC(C)[C@@H]1CC[C@@H](C)CC12OCC(CO)O2 (single isomer, unassigned; (-)) [Frescolat ® MGA, (−)-menthone 1,2-glycerol ketal]
3. CC1CCC(C(C)C)C(O)C1 (centres unmarked) [Menthol, menthol, reference compound]

**Result**
149
93
53
